- METHOD_DESCRIPTION: Metabolic stability test in plasma
- Assay type: in vitro ADME, human
- REPORTED_CONDITIONS: unchanged form after 60 minutes at 37°C in human plasma, LC/MS; read-out: Remaining rate in human plasma (%/60min)
PARAMETER_MEASURED: remaining at 1 h (%)

(A) CC(C)OC(=O)COC(=O)c1ccc(OC(=O)CCCc2ccc(NC(=O)c3ccccc3-c3ccc(C(F)(F)F)cc3)c(C(=O)N(C)C)c2)cc1 [Compound 1-102]
(B) COC(=O)c1cc(Cl)c(OC(=O)CCCc2ccc(NC(=O)c3ccc(C)nc3-c3ccc(C(F)(F)F)cc3)c(C(=O)N(C)C)c2)c(C(C)C)c1 [Compound 1-74]
(C) CN(C)C(=O)Cn1nnc(-c2ccc(OC(=O)CCCc3ccc(NC(=O)c4ccccc4-c4ccc(C(F)(F)F)cc4)c(C(=O)N(C)C)c3)cc2)n1 [Compound 1-105]
(D) COC(=O)c1ccc(OC(=O)CCCc2ccc(NC(=O)c3ccccc3-c3ccc(C(F)(F)F)cc3)c(C(=O)N(C)C)c2)c(C)c1 [Compound 1-66]
Endpoint returns the given compounds ordered by ascending remaining at 1 h. I'd appreciate it if you listed the labels in the requested order.
A, D, B, C

(P) CC(C)OC(=O)c1ccc(OC(=O)CCCc2ccc(NC(=O)c3cccnc3-c3ccc(C(F)(F)F)cc3)c(C(=O)N(C)C)c2)cc1 [Compound 1-31]
(Q) CN(C)C(=O)c1cc(CCCC(=O)Oc2ccc(C(=O)OCc3cccc(Cl)c3)cc2)ccc1NC(=O)c1ccccc1-c1ccc(C(F)(F)F)cc1 [Compound 1-87]
Lower value of remaining at 1 h belongs to which: P or Q ? Reply briefly: the label of your chosen item.
P

(1) COC(=O)c1ccc(-c2nc(C)ccc2C(=O)Nc2ccc(CCCC(=O)Oc3c(C)cc(C(=O)OC)cc3C(=O)OC)cc2C(=O)N(C)C)cc1 [Compound 4-2]
(2) CN(C)C(=O)c1cc(CCCC(=O)Oc2ccc(C(=O)OC3CCCc4ccccc43)cc2)ccc1NC(=O)c1ccccc1-c1ccc(C(F)(F)F)cc1 (stereo not drawn) [Compound 1-108]
Which of the two items, 1 and 2 , has the greater recorded remaining at 1 h? Reply briefly: the label of your chosen item.
2
(2: 17%, 1: 0%)

(I) CCCC(=O)c1ccc(OC(=O)CCCc2ccc(NC(=O)c3ccccc3-c3ccc(C(F)(F)F)cc3)c(C(=O)N(C)C)c2)cc1 [Compound 1-93]
(II) CC(C)n1nnc(-c2ccc(OC(=O)CCCc3ccc(NC(=O)c4ccccc4-c4ccc(C(F)(F)F)cc4)c(C(=O)N(C)C)c3)cc2)n1 [Compound 1-115]
Lower value of remaining at 1 h belongs to which: I or II ? Reply briefly: the label of your chosen item.
I
(I: 0%, II: 40%)
